- Tested on: HCC-827
- ASSAY_INFO: relative viability (nuclei count vs DMSO), 5 days (fraction); higher = more cells survive
- RUN_CONDITIONS: first compound 1.265 µM
Give measured relative viability for each item. Keep answers brief.
Lab note: write the figure by itself, no unit.

Query string: Look up relative viability: Cc1sc2c(c1C)C(c1ccc(Cl)cc1)=N[C@@H](CC(=O)OC(C)(C)C)c1nnc(C)n1-2 [JQ1] + CS(=O)(=O)N1CCN(Cc2cc3nc(-c4cccc5[nH]ncc45)nc(N4CCOCC4)c3s2)CC1 [Pictilisib] (partner 1 µM)
Result string: 0.911

Query string: Field request: relative viability | item: Cc1sc2c(c1C)C(c1ccc(Cl)cc1)=N[C@@H](CC(=O)OC(C)(C)C)c1nnc(C)n1-2 [JQ1] + N=C(N)NC(=N)NCCc1ccccc1 [Phenformin] (partner 250 µM)
Result string: 0.468

Query string: # input compound: Cc1sc2c(c1C)C(c1ccc(Cl)cc1)=N[C@@H](CC(=O)OC(C)(C)C)c1nnc(C)n1-2 [JQ1] + CC(=O)Nc1cccc(-n2c(=O)n(C3CC3)c(=O)c3c(Nc4ccc(I)cc4F)n(C)c(=O)c(C)c32)c1 [Trametinib] (partner 0.02 µM) ; wanted: its relative viability
Result string: 0.543

Query string: Record request: relative viability value, item Cc1sc2c(c1C)C(c1ccc(Cl)cc1)=N[C@@H](CC(=O)OC(C)(C)C)c1nnc(C)n1-2 [JQ1] + C[C@@H](Oc1cc(-c2cnn(C3CCNCC3)c2)cnc1N)c1c(Cl)ccc(F)c1Cl [Crizotinib] (partner 1 µM)
Result string: 0.672
